# target_of_assay: adenosine A2b receptor (Homo sapiens)
# Sequence (P29275 1-332): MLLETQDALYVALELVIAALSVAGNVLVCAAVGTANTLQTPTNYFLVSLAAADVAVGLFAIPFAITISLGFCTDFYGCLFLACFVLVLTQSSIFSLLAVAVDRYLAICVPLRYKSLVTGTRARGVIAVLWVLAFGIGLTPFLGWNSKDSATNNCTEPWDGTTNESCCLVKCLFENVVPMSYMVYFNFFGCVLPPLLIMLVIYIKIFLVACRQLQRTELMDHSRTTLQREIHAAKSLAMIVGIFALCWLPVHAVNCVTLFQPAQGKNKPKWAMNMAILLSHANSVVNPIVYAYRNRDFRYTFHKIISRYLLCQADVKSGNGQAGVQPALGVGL
# assay_remarks: Indirect determination of adenosine agonism by way of gene expression (luciferase, CHO cells), A2b
# test_parameters: CHO cells stably transfected with A2b receptor cDNA; 50% of maximum luciferase stimulation
outcome_measure: EC50 (nM)

{"compound": "N#Cc1c(OCc2coc(-c3ccc(Cl)cc3)n2)nc(N2CC(O)C2)c(C#N)c1-c1ccc(OCCO)cc1 [Example 130]", "EC50, nM": 245}
{"compound": "N#Cc1c(N)nc(SCc2coc(-c3ccc(F)cc3)n2)c(C#N)c1-c1ccc(OC[C@H](O)CO)cc1 [Example 101]", "EC50, nM": 226}
{"compound": "N#Cc1c(N)nc(OCc2coc(-c3ccc(F)c(F)c3)n2)c(C#N)c1-c1ccc(OCCO)cc1 [Example 114]", "EC50, nM": 969}

A = N#Cc1c(N)nc(SCc2coc(-c3ccc(F)c(F)c3)n2)c(C#N)c1-c1ccc(OCCO)cc1 [Example 11]
B = N#Cc1c(N)nc(SCc2coc(-c3ccc(F)cc3)n2)c(C#N)c1-c1ccc(OC[C@@H](O)CO)cc1 [Example 81]
C = N#Cc1c(N)nc(SCc2coc(-c3ccc(Cl)cc3)n2)c(C#N)c1-c1ccc(OC[C@@H](O)CO)cc1 [Example 48]
D = C[C@H](O)COc1ccc(-c2c(C#N)c(N)nc(SCc3coc(-c4ccc(Cl)cc4)n3)c2C#N)cc1 [Example 106]
IN: Put the entries in order of EC50, starting with the largest number. Form field (ranking): labels in requested order.
OUT: A, D, B, C

* * *

# target_of_assay: adenosine A2b receptor (Homo sapiens, UniProt P29275)
# Sequence (P29275 1-332): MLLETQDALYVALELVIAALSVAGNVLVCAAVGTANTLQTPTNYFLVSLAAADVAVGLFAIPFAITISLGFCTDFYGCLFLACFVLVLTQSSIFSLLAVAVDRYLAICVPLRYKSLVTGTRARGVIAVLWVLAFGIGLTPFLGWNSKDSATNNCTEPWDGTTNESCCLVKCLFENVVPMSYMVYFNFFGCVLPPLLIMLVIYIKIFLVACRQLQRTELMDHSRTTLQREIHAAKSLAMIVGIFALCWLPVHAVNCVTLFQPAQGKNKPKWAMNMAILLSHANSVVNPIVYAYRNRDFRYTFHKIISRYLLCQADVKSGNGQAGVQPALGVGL
# assay_remarks: Indirect determination of adenosine agonism by way of gene expression (luciferase, CHO cells), A2b
# test_parameters: CHO cells stably transfected with A2b receptor cDNA; 50% of maximum luciferase stimulation
# Source text: B-1. Indirect Determination of the Adenosine Agonism by Way of Gene Expression Cells of the CHO (Chinese Hamster Ovary) permanent cell line are transfected stably with the cDNA for the adenosine receptor subtypes A1, A2a and A2b. The adenosine A1 receptors are coupled to the adenylate cyclase by way of Gi proteins, while the adenosine A2a and A2b receptors are coupled by way of Gs proteins. In correspondence with this, the formation of cAMP in the cell is inhibited or stimulated, respectively. […]
outcome_measure: EC50 (nM)

{"smiles_str": "COc1ccc(-c2nc(CSc3nc(N)c(C#N)c(-c4ccc(OC[C@H](O)CO)cc4)c3C#N)c(C)o2)cc1", "target_of_assay": "adenosine A2b receptor (Homo sapiens, UniProt P29275)", "EC50 [nM]": 370}

I = N#Cc1c(N)nc(SCc2ncoc2-c2ccc(Cl)cc2)c(C#N)c1-c1ccc(OC[C@@H](O)CO)cc1
II = Cc1cc(-c2nc(CSc3nc(N)c(C#N)c(-c4ccc(OC[C@H](O)CO)cc4)c3C#N)co2)ccc1Cl
IN: Sorting ascending by EC50, which comes first: I or II ? Returns: label corresponding to the selected item.
OUT: II
